Target: T1, B-cat-Halo (NanoBRET construct expressed in HEK293 cells) (UniProt P35222 1-781)
T1 sequence (looked up): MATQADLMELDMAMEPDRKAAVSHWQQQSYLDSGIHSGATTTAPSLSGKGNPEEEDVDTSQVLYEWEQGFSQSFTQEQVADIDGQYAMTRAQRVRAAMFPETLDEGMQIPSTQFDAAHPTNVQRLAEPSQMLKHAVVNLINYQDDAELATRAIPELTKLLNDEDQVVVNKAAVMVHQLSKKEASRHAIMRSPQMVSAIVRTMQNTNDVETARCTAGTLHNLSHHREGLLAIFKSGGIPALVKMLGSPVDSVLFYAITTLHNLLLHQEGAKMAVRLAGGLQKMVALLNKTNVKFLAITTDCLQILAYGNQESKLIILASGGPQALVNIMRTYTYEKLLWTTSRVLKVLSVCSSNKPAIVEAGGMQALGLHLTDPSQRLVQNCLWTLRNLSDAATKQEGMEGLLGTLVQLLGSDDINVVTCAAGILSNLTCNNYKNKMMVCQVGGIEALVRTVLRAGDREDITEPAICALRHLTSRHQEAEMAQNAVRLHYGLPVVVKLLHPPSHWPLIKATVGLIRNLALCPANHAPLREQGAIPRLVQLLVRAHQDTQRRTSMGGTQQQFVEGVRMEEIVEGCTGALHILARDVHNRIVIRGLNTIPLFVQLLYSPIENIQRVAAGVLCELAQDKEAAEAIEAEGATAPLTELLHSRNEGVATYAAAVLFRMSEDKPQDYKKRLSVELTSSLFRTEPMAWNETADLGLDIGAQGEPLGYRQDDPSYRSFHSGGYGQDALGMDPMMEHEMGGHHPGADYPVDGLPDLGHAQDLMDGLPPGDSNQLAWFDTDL
Assay: cell-based or functional assay
Starred links: 1 amine or outer side, 2 acyl side, 3 side chain; linkers in the order of their positions; H or OH if unused. Positions of bridges follow the written chain, without caps; N, C: chain ends. Non-standard residues stand in square brackets, D forms with d. Primed or numbered codes have the meaning given here. B5(20) = 2-amino-2-(pent-4-en-1-yl)hept-6-enoic acid = bis(4-pentenyl)glycine, stitching residue, C=CCCCC(CCCC=C)(N[*:1])C(=O)[*:2]; B5(6) = 2-amino-2-(pent-4-en-1-yl)hept-6-enoic acid (bis(4-pentenyl)glycine), stitching residue, C=CCCCC(CCCC=C)(N[*:1])C(=O)[*:2]; Phe(2-CONH2) = NC(=O)c1ccccc1C[C@H](N)C(=O)O; Phe(2-OMe) = COc1ccccc1C[C@H](N)C(=O)O; Bta = N[C@@H](Cc1csc2ccccc12)C(=O)O; αAllylPro = C=CC[C@@]1(C(=O)O)CCCN1; 3Thi = N[C@@H](Cc1ccsc1)C(=O)O; S8 = C=CCCCCCC[C@](C)(N)C(=O)O
Label key: 1.0 means NanoBRET Abs IC50 under 10 µM; 0.0 means NanoBRET Abs IC50 of 10 µM or more.

* Ac-[αAllylPro]DL[B5(6)]DEAAFQ[S8]F[Bta]H-NH2 (staple 1-4, 4-11, Stapled peptide composition) [I-506] | 1.0
* Ac-[αAllylPro]DI[B5(20)]DEAAFN[S8][3Thi][Bta]Q-NH2 (staple 1-4, 4-11; also: later-eluting HPLC peak of staple isomers) [I-521] | 0.0
* Ac-[αAllylPro]DI[B5(20)]DEAAFN[S8][Phe(2-OMe)][Bta]H-NH2 (staple 1-4, 4-11, Stapled peptide composition) [I-512] | 0.0
* Ac-[αAllylPro]DL[B5(6)]DEAAFQ[S8]F[Bta]Q-NH2 (staple 1-4, 4-11, Stapled peptide composition) [I-505] | 1.0
* Ac-[αAllylPro]DI[B5(20)]DEAAFN[S8][3Thi][Bta]H-NH2 (staple 1-4, 4-11) [I-517] | 1.0

Field: below-cutoff. Rule: recorded NanoBRET Abs IC50 strictly less than 10 µM. Subject: Ac-[αAllylPro]DA[B5(20)]DEAAFN[S8][3Thi][Bta]H-NH2 (staple 1-4, 4-11; also: later-eluting HPLC peak of staple isomers) [I-516]
0.0

Field: below-cutoff. Rule: recorded NanoBRET Abs IC50 strictly less than 10 µM. Subject: Ac-[αAllylPro]DA[B5(20)]DEAAFN[S8][3Thi][Bta]Q-NH2 (staple 1-4, 4-11; also: later-eluting HPLC peak of staple isomers) [I-519]
0.0

Field: below-cutoff. Rule: recorded NanoBRET Abs IC50 strictly less than 10 µM. Subject: Ac-[αAllylPro]DI[B5(20)]DEAAFN[S8][Phe(2-CONH2)][Bta]H-NH2 (staple 1-4, 4-11, Stapled peptide composition) [I-514]
0.0

// data source = patent US20240116985A1
